These data points were gathered from ChEMBL document CHEMBL4627246.

molecular target: P2X purinoceptor 7 (Homo sapiens) (UniProt Q99572); test: Inhibition of human P2X7 expressed in human HEK293 cells assessed as reduction in BzATP-stimulated TO-PRO-3 incorporation at 10 uM preincubated with compound and TO-PRO-3 for 15 mins prior to BzATP addition and measured after 1 hr by Fluo-3AM dye based flow cytometry relative to control; format: cell-based
Sequence (Q99572 whole entry): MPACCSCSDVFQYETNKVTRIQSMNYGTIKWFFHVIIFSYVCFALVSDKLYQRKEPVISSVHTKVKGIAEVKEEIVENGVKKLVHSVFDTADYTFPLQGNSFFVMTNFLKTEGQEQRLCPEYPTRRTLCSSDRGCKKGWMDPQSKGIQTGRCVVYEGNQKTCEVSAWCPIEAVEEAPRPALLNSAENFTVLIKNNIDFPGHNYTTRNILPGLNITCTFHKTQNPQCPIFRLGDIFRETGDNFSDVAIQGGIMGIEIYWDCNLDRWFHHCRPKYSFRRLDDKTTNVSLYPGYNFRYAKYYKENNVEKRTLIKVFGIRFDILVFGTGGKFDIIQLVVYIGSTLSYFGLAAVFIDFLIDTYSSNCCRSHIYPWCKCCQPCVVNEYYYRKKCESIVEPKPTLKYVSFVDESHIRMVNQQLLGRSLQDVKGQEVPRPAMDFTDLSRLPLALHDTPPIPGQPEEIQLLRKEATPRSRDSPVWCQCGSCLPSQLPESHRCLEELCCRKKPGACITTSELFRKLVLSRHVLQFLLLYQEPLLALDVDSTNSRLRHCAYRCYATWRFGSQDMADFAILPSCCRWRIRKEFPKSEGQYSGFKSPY
Active and inactive are the calls of the source. How the calls were made is not given here.
propertyName: inhibition

Example entries and their recorded answers appear below.
COC(=O)[C@@H]1CCC(=O)N1c1ccoc1	inactive
O=C1CC[C@@H](C(=O)Nc2ccc(Cl)cc2Cl)N1	inactive
COc1ccc(CNC(=O)[C@@H]2CCC(=O)N2)cc1	inactive
O=C(NCc1ccccc1)[C@@H]1CCC(=O)N1Cc1ccccc1	0%
O=C(NCc1ccc(Cl)cc1Cl)[C@@H]1COC(=O)N1c1cccs1	80%

// query // lookup inhibition for COc1ccc(NC(=O)[C@@H]2CCC(=O)N2)cc1F
// result inactive

// query // lookup inhibition for COC(=O)[C@@H]1CCC(OC)=N1
// result inactive

// query // lookup inhibition for O=C1CC[C@@H](C(=O)NCc2cccc(C(F)(F)F)c2Cl)N1
// result inactive

// query // lookup inhibition for COc1cc(N2C(=O)[C@@H]3C/C(=C\N(C)C)C(=O)N3C2N(C)C)cc(OC)c1OC (stereo not given in full)
// result 0%

###

tested on: A549; assay: Cytotoxicity against human A549/ATCC cells assessed as effect on cell growth at 10 uM incubated for 48 hrs by sulforhodamine B assay; type: cell-based; conditions: a549, 48 h
propertyName: Activity

O=C(NCCc1ccccc1)[C@@H]1CCC(=O)N1Cc1ccc(Cl)cc1Cl	Non-Toxic
COc1ccccc1CN1C(=O)[C@@H]2C/C(=C\N(C)C)C(=O)N2C1N(C)C (some centres not stated)	Non-Toxic
O=C(NCCc1ccc(Cl)cc1Cl)[C@@H]1CCC(=O)N1c1ccccc1	Non-Toxic
O=C(NCc1ccccc1Cl)[C@@H]1CCC(=O)N1Cc1ccccc1	Non-Toxic
COc1ccc(CNC(=O)[C@@H]2CCC(=O)N2Cc2ccc(Cl)cc2Cl)c(OC)c1	Non-Toxic

// query Any idea what Activity came out for O=C(NCc1ccc(Cl)cc1Cl)[C@@H]1CCC(=O)N1c1ccc(Cl)cc1Cl on A549?
// result Non-Toxic

// query Any idea what Activity came out for C[n+]1ccccc1C(=O)NCc1ccc(Cl)cc1Cl.[I-] on A549?
// result Non-Toxic

###

system: RXF 393; assay: Cytotoxicity against human RXF393 cells assessed as effect on cell growth at 10 uM incubated for 48 hrs by sulforhodamine B assay; format: cell-based; settings: rxf 393, 48 h
propertyName: Activity

O=C(NCc1ccc(Cl)cc1Cl)[C@@H]1CCC(=O)N1c1cccs1	Non-Toxic
COc1ccc(NC(=O)[C@@H]2CCC(=O)N2)cc1OC	Non-Toxic
O=C(NCc1ccc(Cl)cc1Cl)[C@@H]1CCC(=O)N1c1cncs1	Non-Toxic

###

system: SF-295; experiment: Cytotoxicity against human SF295 cells assessed as effect on cell growth at 10 uM incubated for 48 hrs by sulforhodamine B assay; type: cell-based; settings: sf-295, 48 h
propertyName: Activity

Example entries and their recorded answers appear below.
COc1ccc(NC(=O)[C@@H]2C/C(=C\N(C)C)C(=O)N2)cc1	Non-Toxic
O=C(NCc1ccc(Cl)cc1Cl)c1ccccn1	Non-Toxic
CN(C)C(=O)[C@@H]1CCC(=O)N1	Non-Toxic
CN(Cc1ccccc1)C(=O)[C@@H]1CCC(=O)N1Cc1ccc(Cl)cc1Cl	Non-Toxic
O=C(NCc1ccc(Cl)cc1Cl)[C@@H]1CCC(=O)N1C(c1ccc(Cl)cc1)c1ccc(Cl)cc1	Non-Toxic
COc1ccc(NC(=O)[C@@H]2CCC(=O)N2)cc1OC	Non-Toxic
O=C(NCc1ccc(Cl)cc1Cl)[C@@H]1CCC(=O)N1c1cncs1	Non-Toxic
COc1ccc(N2C(=O)CC[C@H]2C(=O)NCc2ccc(Cl)cc2Cl)cc1	Non-Toxic

// query // lookup Activity for COc1ccc(CN2C(=O)CC[C@H]2C(=O)NCCc2ccccc2)cc1
// result Non-Toxic

// query // lookup Activity for O=C1N[C@H](C(=O)NCc2ccc(Cl)cc2Cl)CO1
// result Non-Toxic

// query // lookup Activity for N#Cc1ccc(N2C(=O)CC[C@H]2C(=O)NCc2ccc(Cl)cc2Cl)cc1
// result Non-Toxic

// query // lookup Activity for O=C(NCC1CCCCC1)[C@@H]1CCC(=O)N1c1ccccc1
// result Non-Toxic

// query // lookup Activity for O=C1N[C@H](C(=O)NCc2ccc(Cl)cc2Cl)C/C1=C/NCc1ccc(Cl)cc1Cl
// result Non-Toxic

// query // lookup Activity for O=C(NCc1ccc(Cl)cc1Cl)[C@@H]1CCC(=O)N1c1ccc(Cl)cc1Cl
// result Non-Toxic

// query // lookup Activity for O=C1CCCC(C(=O)NCc2ccc(Cl)cc2Cl)N1 (stereo not drawn)
// result Non-Toxic

// query // lookup Activity for O=C1N[C@H](C(=O)NCc2ccc(Cl)cc2Cl)C/C1=C\N1CCOCC1
// result Non-Toxic

// query // lookup Activity for C[n+]1ccccc1C(=O)NCc1ccc(Cl)cc1Cl.[I-]
// result Non-Toxic

// query // lookup Activity for O=C(NCCc1ccccc1)[C@@H]1CCC(=O)N1Cc1ccc(Br)cc1
// result Non-Toxic

// query // lookup Activity for O=C(Nc1ccc(Cl)cc1Cl)[C@@H]1CCC(=O)N1Cc1ccccc1Cl
// result Non-Toxic

// query // lookup Activity for COc1cc(CNC(=O)[C@@H]2CCC(=O)N2)cc(OC)c1OC
// result Non-Toxic

// query // lookup Activity for COC(=O)[C@@H]1C/C(=C\NCc2ccc(Cl)cc2Cl)C(=O)N1C(=O)OC
// result Non-Toxic

// query // lookup Activity for O=C(NCc1ccc(Cl)cc1Cl)[C@@H]1CCC(=O)N1Cc1ccc(Cl)cc1
// result Non-Toxic

// query // lookup Activity for CN1C(=O)CC[C@H]1C(=O)NCc1cc(C(F)(F)F)ccc1Cl
// result Non-Toxic

###

tested on: RPMI-8226; assay: Cytotoxicity against human RPMI8226 cells assessed as effect on cell growth at 10 uM incubated for 48 hrs by sulforhodamine B assay; assay type: cell-based; conditions: rpmi-8226, 48 h
propertyName: Activity

O=C(NCc1ccccc1Cl)[C@@H]1CCC(=O)N1Cc1ccccc1	Non-Toxic
CN1CCN(/C=C2\C[C@@H](C(=O)NCc3ccc(Cl)cc3Cl)N(c3cccs3)C2=O)CC1	Non-Toxic
O=C(NCc1ccc(Cl)cc1Cl)[C@@H]1COC(=O)N1c1cccs1	Non-Toxic

###

test system: A498; assay: Cytotoxicity against human A498 cells assessed as effect on cell growth at 10 uM incubated for 48 hrs by sulforhodamine B assay; format: cell-based; conditions: a498, 48 h
propertyName: Activity

O=C(NCc1ccc(Cl)cc1Cl)[C@@H]1CCC(=O)N1C(c1ccc(Cl)cc1)c1ccc(Cl)cc1	Non-Toxic
COc1ccc(CN2C(=O)CC[C@H]2C(=O)NCCc2ccccc2)cc1	Non-Toxic
Cc1ccc(NC(=O)[C@@H]2CCC(=O)N2c2ccccc2)cc1	Non-Toxic

###

system: RXF 393; assay: Cytotoxicity against human RXF393 cells assessed as effect on cell growth at 10 uM incubated for 48 hrs by sulforhodamine B assay; assay type: cell-based; conditions: rxf 393, 48 h
propertyName: Activity

COc1ccc(NC(=O)[C@@H]2C/C(=C\N(C)C)C(=O)N2)cc1	Non-Toxic
O=C(NCc1ccc(Cl)cc1Cl)[C@@H]1CCC(=O)N1c1ccc(Cl)cc1	Non-Toxic
COC(=O)[C@@H]1C/C(=C\NCc2ccc(Cl)cc2Cl)C(=O)N1C(=O)OC	Non-Toxic
O=C(NCc1ccc(Cl)cc1Cl)[C@@H]1CCC(=O)N1C(c1ccccc1)c1ccccc1	Non-Toxic

// query // lookup Activity for O=C(NCc1ccc(Cl)cc1Cl)[C@@H]1CCC(=O)N1Cc1ccccc1
// result Non-Toxic

// query // lookup Activity for O=C(NCc1ccc(Cl)cc1Cl)[C@@H]1COC(=O)N1c1cccs1
// result Non-Toxic

// query // lookup Activity for CN(C)/C=C1\C[C@@H](C(=O)NCc2ccc(Cl)cc2Cl)N(c2cccs2)C1=O
// result Non-Toxic

// query // lookup Activity for O=C(NCc1ccc(Cl)cc1Cl)[C@@H]1CCC(=O)N1C(c1ccc(Cl)cc1)c1ccc(Cl)cc1
// result Non-Toxic

// query // lookup Activity for O=C1N[C@H](C(=O)NCc2ccc(Cl)cc2Cl)C/C1=C\N1CCOCC1
// result Non-Toxic

// query // lookup Activity for O=C(NCc1ccc(Cl)cc1Cl)c1ccccn1
// result Non-Toxic

// query // lookup Activity for CN1C(=O)CC[C@H]1C(=O)NCc1cccc(C(F)(F)F)c1Cl
// result Non-Toxic

// query // lookup Activity for O=C(NCc1ccccc1Cl)[C@@H]1CCC(=O)N1Cc1ccccc1
// result Non-Toxic

// query // lookup Activity for COc1ccc(N2C(=O)CC[C@H]2C(=O)NCc2ccc(Cl)cc2Cl)cc1
// result Non-Toxic

// query // lookup Activity for O=C(NCCc1ccccc1)[C@@H]1CCC(=O)N1Cc1ccc(Br)cc1
// result Non-Toxic

// query // lookup Activity for COc1ccccc1CN1C(=O)[C@@H]2C/C(=C\N(C)C)C(=O)N2C1N(C)C (stereo not given in full)
// result Non-Toxic

// query // lookup Activity for CN(C)/C=C1\C[C@H]2C(=O)N(/C(=C/N(C)C)c3ccncc3)C(N(C)C)N2C1=O (stereo not given in full)
// result Non-Toxic

// query // lookup Activity for O=C1N[C@H](C(=O)NCc2ccc(Cl)cc2Cl)C/C1=N\O (stereo in doubt)
// result Non-Toxic

// query // lookup Activity for COc1cc(CN/C=C2\C[C@@H](C(=O)NCc3ccc(Cl)cc3Cl)NC2=O)cc(OC)c1OC
// result Non-Toxic

// query // lookup Activity for COc1cc(CNC(=O)[C@@H]2CCC(=O)N2)cc(OC)c1OC
// result Non-Toxic

// query // lookup Activity for CN1C(=O)CC[C@H]1C(=O)NCc1cc(C(F)(F)F)ccc1Cl
// result Non-Toxic
